Each recorded value in this set is attributed to PubChem BioAssay (NCATS).

experiment: Quantitative High-Throughput drug screen in 47 multiple myeloma cell lines against the NCATS MIPE library collection: JJN3_DSMZ cell viability assay (AID 1918966; note: nearly all actives have a fitted effect of over 50% in size); conditions: JJN3 myeloma cells viability, CellTiter-Glo ATP, 48 h; series mostly up to 45.8 µM
Inconclusive results are not listed. Activity calls are given as the source filed them. Calls come from the whole dose curve; as a rule, active = well fitted cell-killing curve with a large enough effect; inconclusive = small, poorly fitted or top-dose-only effect, or effect the other way; inactive = no such curve, though single readings can be large or run the other way.
# valid calls are Yes = active, No = inactive; nothing else

{"molecule": "CNC(=O)c1ccc2c(C(=Nc3cccc(CN(C)C)c3)c3ccccc3)c(O)[nH]c2c1", "answer-label": "Yes"}
{"molecule": "Cc1cn([C@@H]2C[C@@H](O)[C@H](CO)O2)c(=O)[nH]c1=O", "answer-label": "No"}
{"molecule": "CC1CNc2c(cccc2S(=O)(=O)N[C@@H](CCCN=C(N)N)C(=O)N2CC[C@@H](C)C[C@@H]2C(=O)O)C1 (stereo partly drawn)", "answer-label": "No"}
{"molecule": "CC(=O)NCCC(=O)N[C@@H](CCC(N)=O)C(=O)N[C@@H](CO)C(=O)N[C@@H](CCC(N)=O)C(=O)N[C@@H](CCC(N)=O)C(=O)N[C@H](C(=O)N[C@@H](Cc1ccccc1)C(=O)N[C@]1(C)CCCCCCC=CCCC[C@@](C)(C(=O)N[C@@H](CCC(N)=O)C(=O)N[C@@H](CC(N)=O)C(N)=O)NC(=O)[C@H](CC(C)C)NC(=O)[C@H](CC(C)C)NC(=O)[C@@H](CCCNC(=N)N)NC(=O)[C@H](Cc2c[nH]c3ccccc23)NC(=O)[C@H](CC(C)C)NC(=O)[C@H](CC(N)=O)NC1=O)[C@H](C)O", "answer-label": "Yes"}

Task item: Which outcome did this test record for the molecule C=CC(=O)Nc1cccc(Sc2nc(Nc3ccc(N4CCN(C)CC4)cc3)ncc2Cl)c1 ?
Reply: Yes
